Each entry below lists one item and its recorded signal vs NO COMP=100 value.
Molecular target: T1, human CD115 extracellular domain (Sino Biological 10161-H08H) (human, UniProt P07333 20-517)
T1 construct: extracellular domain; bought recombinant protein; also called huCD115; hu-CD115
Assay: competition ELISA, competitor TMR 35A;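 further: clonal hybridoma supernatant antibodies added to wells after the competitor mouse antibody, lost binding signal puts an antibody in that competitor's epitope bin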;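 further: low signal means same epitope bin as the mouse competitor antibody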
Hi! Could you send only the number? It should be in %, unit omitted.

In the examples that follow, each entry is paired with its recorded signal vs NO COMP=100.
1) CCK-541A (antibody, V domains shown, AlivaMab chimeric IgG, human kappa LC) VH: QVQLQESGPGLVKPSETLSLTCTVSGASISTYFWSWLRQPPGKGLEWIGYIFYSGSINYNPSLKSRVTISVDTSKNQFSLELSSVTAADTAVYYCARDRTFYGMDVWGQGTTVTVSS VL: EIVLTQSPGTLSLPPGERATLSCRASQNVSSTYLAWYHQKPGQAPRLLIYGASSRATGIPDRFSGSGSGTDFTLTISRLEPEDFAVYYCQQYGSSPRTFGQGTKVEIK :: 111
2) CCK-525A (antibody, V domains shown, AlivaMab chimeric IgG, human kappa LC) VH: QVQLVESGGGVVQPGRSLRLSCAASGFTFSSYGMHWVRQAPGKGLEWVAVIWYDGSIKYYADSVKGRFTISRDNSKNTLYLQMNSLRAEDTAVYYCARATYYYDSSGYYSNWFDPWGQGTLVTVSS VL: DIQMTQSPSSVSASVGDRVTITCRASQGISSWLAWYQQKPGKAPKLLIYAASSLQSGVPSRFSGSGSGTDFTLTISSLQPEDFATYYCQQANTFPFTVGPGTKVDIK :: 88

Okay, now this binder:
Q: Give the measured signal vs NO COMP=100 for CCK-465A (antibody, V domains shown, AlivaMab chimeric IgG, human kappa LC) VH: QVQLQESGPGLVKPSETLSLSCTVSGGSISSYYWSWIRQPAGKGLEWIGRIYTSGSTNYNPSLKSRVTMSVDTSKNQFSLKLSSVTAADTAVYYCARDRSFYGMDVWGQGTTVTVSS VL: DIQMTQSPSSLSASVGDRVTITCRASQGFSNYLAWYQQKPGKVPKLLIYAASTLQSGVPSRFSGSGSGTDFTLTISSLQPEDVATYYCQKYNSAPLTFGGGTKVEIK
Ans: 88

meta.source: patent US20180258175A1
